# assay target: hGPR40 (Homo sapiens)
# Sequence (O14842 whole entry): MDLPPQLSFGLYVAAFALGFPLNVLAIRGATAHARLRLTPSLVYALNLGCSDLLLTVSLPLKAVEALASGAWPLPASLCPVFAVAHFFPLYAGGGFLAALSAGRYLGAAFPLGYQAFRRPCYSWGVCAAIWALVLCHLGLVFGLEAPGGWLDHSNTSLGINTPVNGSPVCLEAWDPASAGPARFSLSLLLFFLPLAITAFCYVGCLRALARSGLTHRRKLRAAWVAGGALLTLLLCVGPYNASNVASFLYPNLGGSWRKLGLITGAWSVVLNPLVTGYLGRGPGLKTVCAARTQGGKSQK
# experimental protocol: FDSS-based intracellular calcium assay
# Assay type: cell-based
# Parameters: 3xFLAG; expressed in transfected cells
# settings: intracellular Ca2+ response, cells expressing GPR40
Reported EC50 by item:
Write it as a number; the unit µM goes unstated.

Consider the reported EC50 for these compounds:
- COc1ccccc1N1CCC(Oc2ccc(N3N=C(C(F)(F)F)[C@@H](C)[C@@H]3CC(=O)O)cc2)CC1: 1.7
- C[C@@H]1C(C(F)(F)F)=NN(c2ccc(OC3CCN(c4ccc(F)cc4)CC3)cc2)[C@H]1CC(=O)O: 2.65
- C[C@@H]1C(C(F)(F)F)=NN(c2ccc(OC3CCN(c4cccnc4)CC3)cc2)[C@H]1CC(=O)O: 7.68
- CCOc1ccc(F)c(N2CCC(Oc3ccc(N4N=C(C(F)(F)F)[C@@H](C)[C@@H]4CC(=O)O)cc3)C(C(C)C)C2)c1 (single isomer, unassigned) [Example 26 (Isomer 1)]: 1.9
- C[C@@H]1C(C(F)(F)F)=NN(c2ccc(OC3CCN(c4cc(Cl)ccc4F)CC3)cc2)[C@H]1CC(=O)O: 0.512

In: Fill in reported EC50 for this entry: COc1cc(N2CCC(Oc3ccc(N4N=C(C(F)(F)F)[C@@H](C)[C@@H]4CC(=O)O)cc3)CC2)ccn1
Out: 1.91

In: Fill in reported EC50 for this entry: COc1cc(N2CCC(Oc3ccc(N4N=C(C(F)(F)F)[C@@H](C)[C@@H]4CC(=O)O)cc3)C(F)C2)c(Cl)cn1 (single isomer, unassigned) [Example A1, Isomer 2]
Out: 0.218
